So I've got a bunch of compounds here, and I need their TGI values.
- System: NCI/ADR-RES ovarian
- runDescription: NCI tumour cell line growth inhibition, 48 h

# annotated cases, reported TGI shown
compound	TGI
Cn1c(N2CCCC2)c(C=O)c(=O)n(C)c1=O	> 100 µM
O=C1Oc2ccccc2C(=O)/C1=C/N1C(=O)/C(=C/c2ccc([N+](=O)[O-])cc2)SC1=S	95.7 µM
O=C1c2ccccc2S(=O)(=O)N1CSC(=S)N1CCCC1	> 100 µM
CCOC(=O)c1c(C)n(Cc2ccccc2)c2c1cc(O)c1[nH]c3c(c12)CCCC3	18.5 µM
Oc1cc(Cl)cc2cc(Br)cnc12	> 54.5 µM

The following compounds each have a reported value; give each one's TGI.
1. O=C(Nc1cnn2ccc(N3CCC[C@@H]3c3cc(F)ccc3F)nc12)N1CC[C@H](O)C1
2. c1ccc2nc3[nH]c4ccccc4c3cc2c1
3. OC(c1cccs1)c1cc2ccccc2s1 (centres undefined)
4. CC(C)(C)c1cc(-c2ccc(-c3cc(C(C)(C)C)c(O)c(C(C)(C)C)c3)cc2)cc(C(C)(C)C)c1O
5. C/C=C(\C)C(=O)O[C@@H]1C(O)[C@H]2OC(COC(=O)CCC(=O)CCCCCC[C@H](CCCCC)O[C@@H]3OC(C)[C@H](OC(C)=O)C(O)[C@H]3O2)[C@H]1OC(=O)/C=C/c1ccccc1 (some centres undefined)
6. COC(=O)C1=NN2c3ccccc3C(=O)OCCC2C1 (centres undefined)
7. CO[C@H]1[C@H](O)[C@H](O[C@H]2CC[C@@]3(C)[C@H](CC[C@@H]4[C@@H]3CC[C@]3(C)[C@@H](C5=CC(=O)OC5)CC[C@]43O)C2)O[C@@H](C)[C@@H]1O

> 100 µM
8.28 µM
> 10 µM
> 100 µM
> 100 µM
> 100 µM
0.00115 µM

For every item in the list below, what is its measured TGI?
1. O=c1nc2n(cc1/C=C\Br)C1CC(O)C(CO2)O1 (centres undefined)
2. C=C(C)CCC1CCCCC(CN(C)C)C1=O (centres undefined)

> 100 µM
> 100 µM
